B1: CPEB3 Ribozyme (parent)
chain: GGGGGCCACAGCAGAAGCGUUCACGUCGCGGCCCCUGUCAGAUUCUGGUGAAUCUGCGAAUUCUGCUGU

Variants of: B1
run description: self-cleavage, relative activity (ratio to wild type); higher = more cleavage; co-transcriptional
What self-cleavage was measured for each of the following?
Respond using a number only.

Query (variant): C32G U62C ; field requested: self-cleavage 0.306

// self-cleavage lookup, key: U36G U69A 0.297

Quick check: self-cleavage of U38G C54A ? 0.304

Look at this variant and give its reported self-cleavage. C33G G37A 0.299
